# Test system: Nippostrongylus brasiliensis
# Procedure Details: Antihelminthic activity against L4 parasitant stage of Nippostrongylus brasiliensis
# Format: functional, organism-based

| Molecular String | Tgt | EC50 / µM |
| --- | --- | --- |
| C=C(C[C@H](O)C=C(C)C)[C@@]1(O)CC[C@](C)(Br)[C@@H](Cl)C1 | Nippostrongylus brasiliensis | 110 |

Each recorded value in this set is attributed to ChEMBL document CHEMBL1158029.
